B1: TPR t1 (parent)
chain: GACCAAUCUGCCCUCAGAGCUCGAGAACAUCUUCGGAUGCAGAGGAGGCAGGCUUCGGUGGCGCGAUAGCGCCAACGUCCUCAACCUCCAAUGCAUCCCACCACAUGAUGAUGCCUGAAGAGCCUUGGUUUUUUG

variants of: B1; experiment: polymerase ribozyme fitness, log enrichment relative to wild type (log ratio); higher = more active; in vitro selection for triplet polymerase activity
Label y when polymerase ribozyme fitness (log ratio) >= -3; otherwise n.

Please review the entries below; each comes with its answer.
[
  {
    "MUTANT DESIGNATION": "U9C A41C C53G",
    "ASSIGNED CATEGORY": "y"
  },
  {
    "MUTANT DESIGNATION": "C4G A18C",
    "ASSIGNED CATEGORY": "n"
  },
  {
    "MUTANT DESIGNATION": "A41C G117C A121C",
    "ASSIGNED CATEGORY": "n"
  },
  {
    "MUTANT DESIGNATION": "C8A G58C U112C A121G",
    "ASSIGNED CATEGORY": "y"
  }
]

Could you tell me if the measured polymerase ribozyme fitness (log ratio) of C11U C70A A121C reaches -3 or more?
y

Could you please find out whether G17U C62G has polymerase ribozyme fitness (log ratio) that meets -3 or exceeds it?
n

Is polymerase ribozyme fitness (log ratio) for C40U G60U G110A at or above -3?
y

Is reported polymerase ribozyme fitness (log ratio) greater than or equal to -3 here: C53G C62U A119U
y

polymerase ribozyme fitness (log ratio) >= -3 for G48A G63A U116C G122A ?
n

Test whether the variant C3G C86A records polymerase ribozyme fitness (log ratio) of -3 or higher.
n

Is reported polymerase ribozyme fitness (log ratio) greater than or equal to -3 here: G60U A121G
y

Quick check: does C11A U106A G110U have polymerase ribozyme fitness (log ratio) greater than or equal to -3?
y

Form field: polymerase ribozyme fitness (log ratio) at least -3? Entry: G60C C124A
y
